tested on: Toxoplasma gondii; assay: Antiparasitic activity against Toxoplasma gondii infected african green monkey Vero cells at 5 mM assessed as infected cells; type: functional
// class 0 strictly below 10% in Activity; class 1 otherwise

1. Cc1cccc(/C=N/NC(=S)Nc2ccccc2)c1 = class 1
2. S=C(N/N=C/c1ccccc1)Nc1ccccc1 = class 1
3. O=C(O)CC1S/C(=N\N=C\c2ccccc2)N(c2ccccc2)C1=O (centres undefined) = class 1
4. COc1cc(/C=N/NC(=S)Nc2ccccc2)ccc1O = class 1
5. Cc1ccc(/C=N/NC(=S)Nc2ccccc2)cc1 = class 1
6. S=C(N/N=C/c1cccc(Cl)c1)Nc1ccccc1 = class 1

query: Confirm if Activity reported for the molecule `S=C(N/N=C/c1ccc(Cl)cc1)Nc1ccccc1` is 10% or above.
result: class 1

query: Decide: is the reported value of Activity for `COc1cccc(/C=N/NC(=S)Nc2ccccc2)c1` equal to or greater than 10%?
result: class 0

query: Determine whether measured Activity meets or exceeds 10% for O=C(O)CC1S/C(=N\N=C\c2ccc(Cl)cc2)N(c2ccccc2)C1=O (centres undefined)
result: class 0
